Here, each record is paired with measured Log2 enrichment ratio data.
Target: T1, Epstein-Barr virus BHRF1 a.a. 1-161 with C-terminal avi-6his tag (Epstein-Barr virus)
T1 construct: also called EBV BHRF1; BHRF1-biotin
T1 chain: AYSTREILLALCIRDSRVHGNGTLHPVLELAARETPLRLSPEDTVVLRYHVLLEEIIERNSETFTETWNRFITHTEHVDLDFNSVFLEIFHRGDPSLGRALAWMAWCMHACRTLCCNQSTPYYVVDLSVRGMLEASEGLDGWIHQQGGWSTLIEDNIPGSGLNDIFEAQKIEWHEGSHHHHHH
Experiment: yeast display library, FACS sort at 100 nM BHRF1, deep sequencing
Please append the unit to your numeric answer.

Sample answers from the record:
Index 12 (designed binder) GEDDDKVLKWALEALRKVLDEAKEKLEKLKKYTDGDGFGEDYRREFFRKWIAIALEAIGDIFNIMMEALQKADKHKKLNTHDSQKADEAKEKIKKFADEAEERAKELAKKGEAWLLKG
-2.56 log2
Index 69 (designed binder) GEQAEKALRRAKRRAKWGLDDAKDILDDIEAEIRWYYPRDEERFKFVDRWIAAMLMVIGDLFNAKREALERALRLMRKGLISQDQFKKFMEKLEKIILWGKFQARKLGREKESEITQG
-3.25 log2
Index 23 (designed binder) GEDEEKDHKDTEEKARRLHERARDMLDKVKDLEEKTDAQDNERRRATHDWIAAALMMIGDAFNSFEDTKRRAEKKRELNLISEDEAKEKIKRAEELRKRIYELLKKAAEFAREAEKGG
-1.72 log2

Please turn your attention to the following entry.
Problem: Given Index 32 (designed binder) GGDENKLKDYVKDEIERGLNEIEDLARKIEQLARRFFPKDEERMKFTMWWIAAALMAIGDIFNAKEYARERAEEIRRKGLRREEEARRIEKFIEEEAEKAAKKAAKLGDHLAEELFRG , state its recorded Log2 enrichment ratio.
Solution: -2 log2
